Source of measurements: patent US20260070987A1

TESTED_TARGET: equine FcRn (large alpha subunit p51) in complex with equine beta-2-microglobulin (equine) (UniProt F6XZ61)
PROCEDURE_DETAILS: SPR (Biacore), pH 6
OUTCOME_MEASURE: pKd
Numbers only, as −log10 of the molar value.

Examples with their reported pKd follow.
Problem: Kindly indicate its recorded pKd. Item: equine IgG7 M428H mutant (antibody, part only; not given: variable domains, not shown: another chain or arm of the molecule) constant: ASTTAPKVFPLASHSAATSGSTVALGCLVSSYFPEPVTVSWNSGALTSGVHTFPSVLQSSGLYSLSSMVTVPASSLKSQTYICNVAHPASSTKVDKKIVIKECGGCPTCPECLSVGPSVFIFPPKPKDVLMISRTPTVTCVVVDVGHDFPDVQFNWYVDGVETHTATTEPKQEQNNSTYRVVSILAIQHKDWLSGKEFKCKVNNQALPAPVQKTISKPTGQPREPQVYVLAPHRDELSKNKVSVTCLVKDFYPTDIDIEWKSNGQPEPETKYSTTPAQLDSDGSYFLYSKLTVETNRWQQGTTFTCAVHHEALHNHYTEKSVSKSPGK
Solution: 6.78

Problem: Return the recorded pKd value; entry: equine IgG7 K311I mutant (antibody, part only; not given: variable domains, not shown: another chain or arm of the molecule) constant: ASTTAPKVFPLASHSAATSGSTVALGCLVSSYFPEPVTVSWNSGALTSGVHTFPSVLQSSGLYSLSSMVTVPASSLKSQTYICNVAHPASSTKVDKKIVIKECGGCPTCPECLSVGPSVFIFPPKPKDVLMISRTPTVTCVVVDVGHDFPDVQFNWYVDGVETHTATTEPKQEQNNSTYRVVSILAIQHIDWLSGKEFKCKVNNQALPAPVQKTISKPTGQPREPQVYVLAPHRDELSKNKVSVTCLVKDFYPTDIDIEWKSNGQPEPETKYSTTPAQLDSDGSYFLYSKLTVETNRWQQGTTFTCAVMHEALHNHYTEKSVSKSPGK
Solution: 7.82

Problem: Identify the reported pKd for the following entry. equine IgG7 T286S mutant (antibody, part only; not given: variable domains, not shown: another chain or arm of the molecule) constant: ASTTAPKVFPLASHSAATSGSTVALGCLVSSYFPEPVTVSWNSGALTSGVHTFPSVLQSSGLYSLSSMVTVPASSLKSQTYICNVAHPASSTKVDKKIVIKECGGCPTCPECLSVGPSVFIFPPKPKDVLMISRTPTVTCVVVDVGHDFPDVQFNWYVDGVETHSATTEPKQEQNNSTYRVVSILAIQHKDWLSGKEFKCKVNNQALPAPVQKTISKPTGQPREPQVYVLAPHRDELSKNKVSVTCLVKDFYPTDIDIEWKSNGQPEPETKYSTTPAQLDSDGSYFLYSKLTVETNRWQQGTTFTCAVMHEALHNHYTEKSVSKSPGK
Solution: 7.77

Others:
Problem: Please give measured pKd of the following entry: equine IgG7 D312M mutant (antibody, part only; not given: variable domains, not shown: another chain or arm of the molecule) constant: ASTTAPKVFPLASHSAATSGSTVALGCLVSSYFPEPVTVSWNSGALTSGVHTFPSVLQSSGLYSLSSMVTVPASSLKSQTYICNVAHPASSTKVDKKIVIKECGGCPTCPECLSVGPSVFIFPPKPKDVLMISRTPTVTCVVVDVGHDFPDVQFNWYVDGVETHTATTEPKQEQNNSTYRVVSILAIQHKMWLSGKEFKCKVNNQALPAPVQKTISKPTGQPREPQVYVLAPHRDELSKNKVSVTCLVKDFYPTDIDIEWKSNGQPEPETKYSTTPAQLDSDGSYFLYSKLTVETNRWQQGTTFTCAVMHEALHNHYTEKSVSKSPGK
Solution: 8.21
